Assay: refractive index (Na D-line) (dimensionless)
Conditions: 293.15 K; 101.33 kPa; Liquid; Standard Abbe refractometry
EXPERIMENTAL_READOUT: refractive index

- COMPOUND: "CCCCCCCCCCO [decan-1-ol]"
  EXPERIMENTAL_READOUT: "refractive index"
  OBS_VALUE: 1.4373
- COMPOUND: "CCCCCCCCCO [nonan-1-ol]"
  EXPERIMENTAL_READOUT: "refractive index"
  OBS_VALUE: 1.4335
- COMPOUND: "CCCCCCCCO [octan-1-ol]"
  EXPERIMENTAL_READOUT: "refractive index"
  OBS_VALUE: 1.4292
- COMPOUND: "CCC(=O)O [propanoic acid]"
  EXPERIMENTAL_READOUT: "refractive index"
  OBS_VALUE: 1.3808
